B1: library; a variant is named by its letters at N, in order (parent)
chain: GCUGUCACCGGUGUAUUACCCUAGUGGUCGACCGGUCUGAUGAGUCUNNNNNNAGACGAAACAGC

Variants of: B1
METHOD SUMMARY: normalized RNA/DNA level with ligand (relative to sTRSVctl = 100) (log10 (% of sTRSVctl)); ligand: hypoxanthine (xanthine aptamer); higher = less ribozyme self-cleavage, higher mRNA level
MEASUREMENT CONTEXT: ligand concentration (+) RNA-Seq: 5 mM, HEK293T, reporter: mCherry (pCS4076), ligand present: yes
Kindly supply the reported normalized RNA/DNA level with ligand (log10) values for the records listed here.
Numbers only.

Field: example entries. Status: answers known.
[
  {
    "MUTATION ANNOTATION": "CCGCCG",
    "RECORDED VALUE": 1.96
  },
  {
    "MUTATION ANNOTATION": "GGGCCC",
    "RECORDED VALUE": 1.95
  },
  {
    "MUTATION ANNOTATION": "UCUGUC",
    "RECORDED VALUE": 1.96
  },
  {
    "MUTATION ANNOTATION": "AUUAUU",
    "RECORDED VALUE": 1.91
  },
  {
    "MUTATION ANNOTATION": "CGGAUA",
    "RECORDED VALUE": 1.87
  }
]

Report normalized RNA/DNA level with ligand (log10) for each item below.
1. AACGAA
2. AGCUGC
3. AUCACU

Solution:
1. 1.88
2. 2
3. 1.98
